Known Inhibition of a selection of compounds
- Test system: Klebsiella pneumoniae
- Condition Info: Concentration 32 ug.mL-1; ASSAY_TEST Inhibition of Bacterial Growth; detection method Absorption (OD600); MEDIA CAMHB; plate type 384well; NBS; CORNING #3640; time 18 hr
- Description: Antibacterial activity against Klebsiella pneumoniae MDR ATCC 70063 (CO-ADD:GN_003); MIC in CAMBH media using NBS plates, by OD(600)
Results with a measured potency or affinity are listed apart.

>  <Compound>
COC(COc1cncc2nnc(-c3ccc(C#N)cc3)n12)c1ccc(F)c(F)c1 (stereo unspecified)

>  <Inhibition / %>
-1.15

$$$$
>  <Compound>
CN(C)C(COc1cncc2nnc(-c3ccc(C#N)cc3)n12)c1ccc(F)c(F)c1 (stereo unspecified)

>  <Inhibition / %>
3.41

$$$$
>  <Compound>
Fc1ccc(CCOc2cncc3nnc(-c4ccc(Cl)cc4)n23)cc1F

>  <Inhibition / %>
-4.32

$$$$
>  <Compound>
Fc1ccc(CCOc2cncc3nnc(-c4ccc(C(F)(F)F)nc4)n23)cc1F

>  <Inhibition / %>
-0.34

$$$$
>  <Compound>
CCN1C(=O)c2cccc3c(-c4cn(CCN5CCCNCCN(CCn6cc([C@]7(O)CC[C@H]8[C@@H]9CCc%10cc(O)ccc%10[C@H]9CC[C@@]87C)nn6)CCCNCC5)nn4)ccc(c23)C1=O.OCCN1CCN(CCCN2c3ccccc3Sc3ccc(Cl)cc32)CC1.[O-][Cl+3]([O-])([O-])[O-].[O-][Cl+3]([O-])([O-])[O-].[Zn+2]

>  <Inhibition / %>
-7.97

$$$$
>  <Compound>
O.O=C1c2cccc3c(-n4cc(CN5CCCNCCN(Cc6cn(-c7ccc8c9c(cccc79)C(=O)N(CCCO)C8=O)nn6)CCCNCC5)nn4)ccc(c23)C(=O)N1CCCO.[Cl-].[Cl-].[Zn+2]

>  <Inhibition / %>
2.32

$$$$
